system name: T1, rat amylin receptor (rat calcitonin receptor + rat RAMP 3) (rat, UniProt P32214 25-516; Q9JJ73 23-147)
T1 construct: whole, on cells; Cell membranes of transiently transfected BHK tk'ts 13 cells (Assay VI); also called rAmylin-R; rat amylin 3(a) receptor
T1 sequence (looked up) 1: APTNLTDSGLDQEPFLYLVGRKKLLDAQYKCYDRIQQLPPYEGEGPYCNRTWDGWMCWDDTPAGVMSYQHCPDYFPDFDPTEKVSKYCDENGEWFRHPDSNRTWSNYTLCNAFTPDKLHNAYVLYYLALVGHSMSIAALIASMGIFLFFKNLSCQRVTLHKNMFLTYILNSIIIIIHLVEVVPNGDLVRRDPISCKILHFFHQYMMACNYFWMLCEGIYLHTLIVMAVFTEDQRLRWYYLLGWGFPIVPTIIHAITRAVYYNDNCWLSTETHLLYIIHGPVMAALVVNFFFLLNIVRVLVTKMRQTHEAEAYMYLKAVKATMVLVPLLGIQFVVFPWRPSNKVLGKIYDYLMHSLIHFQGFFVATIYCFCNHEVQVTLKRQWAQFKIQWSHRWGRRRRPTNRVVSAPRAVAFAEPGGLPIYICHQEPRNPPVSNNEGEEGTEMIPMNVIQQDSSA
T1 sequence (looked up) 2: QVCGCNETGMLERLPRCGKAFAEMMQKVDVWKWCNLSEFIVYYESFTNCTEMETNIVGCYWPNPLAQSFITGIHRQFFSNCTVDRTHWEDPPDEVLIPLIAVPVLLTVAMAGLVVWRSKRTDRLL
measurement notes: SPA competition vs 125I-rat amylin, membranes with rat CTR + rat RAMP3 (Assay VI)
Reported IC50 is given for each of the following binders.
State just the number; it will be interpreted in nM.

Worked examples follow.
Can you share its IC50? I mean this binder: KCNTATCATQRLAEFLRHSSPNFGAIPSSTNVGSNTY (C20 diacid-gGlu-2xOEG on alpha-amino of the N-terminal residue; Cys2-Cys7 disulfide; C-terminal amide (as human amylin), Acylated analogue of human amylin; also called compound 19)
1.02

Can you share its IC50? I mean this binder: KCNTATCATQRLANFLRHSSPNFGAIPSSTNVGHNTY (C20 diacid-gGlu on alpha-amino of the N-terminal residue; Cys2-Cys7 disulfide; C-terminal amide (as human amylin), Acylated analogue of human amylin; also called compound 40) [N^α1-[(4S)-4-carboxy-4-(19-carboxynonadecanoylamino)butanoyl]-[Arg17,Pro21,Pro27,His34]-h-amylin]
1.5

Attention now turns to another entry.
Can you share its IC50? I mean this binder: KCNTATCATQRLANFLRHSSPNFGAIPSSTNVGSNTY (C20 diacid-gGlu-2xOEG on alpha-amino of the N-terminal residue; Cys2-Cys7 disulfide; C-terminal amide (as human amylin), Acylated analogue of human amylin; also called compound 24)
3.01
